Molecular target: T1, human FcRH5 protein fragment (soluble) (human, UniProt Q96RD9 16-851)
T1 construct: whole entry named; also called soluble human FcRH5; Human FcRH5 (BIACORE analyte)
T1 sequence: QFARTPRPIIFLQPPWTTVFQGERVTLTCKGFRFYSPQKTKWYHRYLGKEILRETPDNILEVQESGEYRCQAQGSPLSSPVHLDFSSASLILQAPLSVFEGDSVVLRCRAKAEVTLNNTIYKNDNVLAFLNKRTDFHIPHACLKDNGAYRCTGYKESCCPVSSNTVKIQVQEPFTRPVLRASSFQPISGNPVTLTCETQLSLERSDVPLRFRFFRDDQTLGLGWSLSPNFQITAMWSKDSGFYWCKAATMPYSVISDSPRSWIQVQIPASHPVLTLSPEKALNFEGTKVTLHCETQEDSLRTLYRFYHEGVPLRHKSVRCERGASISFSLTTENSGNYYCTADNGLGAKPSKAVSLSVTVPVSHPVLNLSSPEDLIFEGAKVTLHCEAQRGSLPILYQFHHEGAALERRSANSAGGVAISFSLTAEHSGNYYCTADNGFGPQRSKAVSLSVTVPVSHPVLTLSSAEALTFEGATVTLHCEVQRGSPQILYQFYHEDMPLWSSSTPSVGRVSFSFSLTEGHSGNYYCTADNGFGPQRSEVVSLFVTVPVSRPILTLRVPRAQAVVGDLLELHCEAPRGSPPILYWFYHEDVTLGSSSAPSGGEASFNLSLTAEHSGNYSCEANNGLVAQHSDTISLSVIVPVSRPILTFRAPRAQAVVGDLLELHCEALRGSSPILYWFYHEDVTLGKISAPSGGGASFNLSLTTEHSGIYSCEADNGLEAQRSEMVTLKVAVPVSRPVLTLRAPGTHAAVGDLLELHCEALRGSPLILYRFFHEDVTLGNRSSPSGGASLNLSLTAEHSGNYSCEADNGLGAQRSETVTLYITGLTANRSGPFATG
Test: SPR, hIgG capture, screening
Listed here: items and their measured pKd.
Please report pKd as the negative decimal logarithm of the molar concentration, giving only the number.

Check out these entries, answers already filled in.
hu1G7.v1 heavy chain M64I with light chain of hu1G7.v1.6 (antibody, V domains shown, human IgG) VH: EVQLVESGPGLVKPSETLSLTCTVSGFSLTRFGVHWVRQPPGKGLEWLGVIWRGGSTDYNAAFISRLTISKDNSKNQVSLKLSSVTAADTAVYYCSNHYYGSSDYALDNWGQGTLVTVSS VL: DIQMTQSPSSLSASVGDRVTITCKASQDVSNIVVWFQQKPGKAPKLLIYSGYYRYSGVPSRFSGSGSGTDFTLTISSLQPEDFATYYCQQQYQPPYTFGQGTKVEIK
8.57
hu1G7.v1 heavy chain W52F with light chain of hu1G7.v1.6 (antibody, V domains shown, human IgG) VH: EVQLVESGPGLVKPSETLSLTCTVSGFSLTRFGVHWVRQPPGKGLEWLGVIFRGGSTDYNAAFMSRLTISKDNSKNQVSLKLSSVTAADTAVYYCSNHYYGSSDYALDNWGQGTLVTVSS VL: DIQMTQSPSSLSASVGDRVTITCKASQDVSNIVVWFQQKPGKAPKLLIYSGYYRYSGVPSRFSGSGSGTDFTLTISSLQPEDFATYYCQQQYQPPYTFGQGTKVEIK
7.09

Next, consider the following binder.
Lookup: Answer with the recorded pKd of hu1G7.v1 heavy chain W52F with light chain of hu1G7.v1.4 (antibody, V domains shown, human IgG) VH: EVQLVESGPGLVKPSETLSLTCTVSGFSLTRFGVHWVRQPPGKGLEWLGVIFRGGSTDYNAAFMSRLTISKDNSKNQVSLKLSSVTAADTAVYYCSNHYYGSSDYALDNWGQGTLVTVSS VL: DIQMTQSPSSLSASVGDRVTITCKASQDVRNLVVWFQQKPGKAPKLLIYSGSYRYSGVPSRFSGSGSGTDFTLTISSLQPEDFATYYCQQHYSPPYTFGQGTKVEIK only.
Found: 6.92
